B1: library; a variant is named by its letters at N, in order (parent)
chain: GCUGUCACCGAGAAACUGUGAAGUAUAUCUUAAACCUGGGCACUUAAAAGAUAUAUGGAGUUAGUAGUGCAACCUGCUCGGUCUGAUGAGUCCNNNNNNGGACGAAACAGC

Variants of: B1
ASSAY_COMMENT: normalized RNA/DNA level without ligand (relative to sTRSVctl = 100) (log10 (% of sTRSVctl)); HEK293T; ligand: cyclic di-GMP (c-di-GMP-II aptamer); higher = less ribozyme self-cleavage, higher mRNA level
CONDITION_LABEL: reporter: mCherry (pCS4076), ligand present: no
Measured normalized RNA/DNA level without ligand (log10) accompanies every entry in the list below.
Answer with the value's number alone.

Study these solved cases before continuing.
{"VARIANT_SPEC": "GACUAC", "EXPERIMENTAL_RESULT": 1.7}
{"VARIANT_SPEC": "CAAAAC", "EXPERIMENTAL_RESULT": 1.58}
{"VARIANT_SPEC": "UCUACA", "EXPERIMENTAL_RESULT": 1.71}
{"VARIANT_SPEC": "CAAGCC", "EXPERIMENTAL_RESULT": 1.76}

Please give the measured normalized RNA/DNA level without ligand (log10) for this variant: ACAAGA
1.26

Entry to check: UCAGAG
1.53

Entry to check: UCACUU
1.61

Entry to check: UAACCA
1.74
